# method description: probe aEGFR binding to arrayed compounds – biochemical, biotinylated probe, 635/667 nm fluorescence, primary screen (AID 1097);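 further: probe is a biotinylated anti-EGFR antibody binding compounds printed on slides; score combines fluorescence near 667 nm and signal to noise of each spot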
# condition context: small-molecule microarray, higher = more signal
outcome measure: composite z-score

## Input # get_value(readout='composite z-score', item= O=C(NC1CC1)[C@@H]1c2ccccc2C(=O)N(CC23CC4CC(CC(C4)C2)C3)[C@H]1c1ccc(CO)cc1 )
## Output 0.0201

## Input # get_value(readout='composite z-score', item= COc1cc(OC)c(C(O)C2C=CC3C(=O)N(c4ccccc4)C(=O)C3N2Nc2ccc(C(C)C)cc2)cc1Br (stereo not drawn) )
## Output 0.582

## Input # get_value(readout='composite z-score', item= CC(C)=CCCC(C)=CC(O)C1C=CC2C(=O)NC(=O)C2N1Nc1ccccn1 (stereo not drawn) )
## Output 0.186

---

# method description: small molecules captured by biotinylated probe aFGF2 – biochemical, small-molecule microarray, fluorescence 635/667, stem cell growth factor project, primary screen (AID 1067);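 further: measures binding of biotinylated aFGF2 protein to printed compounds on slides; z-score merges feature fluorescence and signal-to-noise across triplicate slides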
# condition context: higher = more signal
# maps each entry to its composite z-score
Respond numerically, and do not add a unit to the figure.

{"compound": "O=C1NC(=O)C2C1C=CC(C(O)c1ccc(B(O)O)cc1)N2Nc1ccc(Cl)cc1Cl (centres undefined)", "value observed": -0.0095}
{"compound": "CC(C)NC(=O)[C@@H]1c2ccccc2C(=O)N(Cc2ccc(OC(F)(F)F)cc2)[C@H]1c1ccc(CO)cc1", "value observed": 0.242}
{"compound": "NC(=O)N1C(=O)C2C(C1=O)C1C=C(CCCO)C2C(c2ccc(CN3CCCC3)cc2)N1Cc1cc2c(cc1Br)OCO2 (centres undefined)", "value observed": -0.0909}
{"compound": "COC(=O)[C@@]1(Cc2ccc(OC)cc2)[C@H]2c3cc(C(=O)N4CCCC4)n(Cc4ccc(C(F)(F)F)nc4)c3C[C@H]2CN1C(=O)c1ccccc1", "value observed": -0.102}
{"compound": "COC(=O)[C@@]1(Cc2ccc(OC)cc2)[C@H]2c3cc(C(=O)N4CCCC4)n(Cc4c(CO)[nH]cc(C)c4=O)c3C[C@H]2CN1C(=O)c1ccccc1", "value observed": -0.06}
{"compound": "C[C@@H]1NC(=O)C([C@@H](C)OCc2ccccc2)NC(=O)[C@@]23C(=O)N[C@@H](Cc4ccccc4)C2[C@H](C)[C@@]2(C)O[C@H]2C3/C=C/C/C=C\\CNC1=O (some centres undefined)", "value observed": -0.0578}
{"compound": "C=CCNC(=O)[C@H]1[C@@H]2C(=O)O[C@@H](c3ccccc3)[C@@H](c3ccccc3)N2[C@@H](c2ccccc2OCCO)[C@]12C(=O)N(C(=O)OCCOC)c1ccc(C#Cc3ccc(OC)cc3)cc12", "value observed": 0.0074}
{"compound": "COc1cc(CO)cc(I)c1O[C@H]1C=C(C(=O)NCCO)C[C@@H]2O[C@H]12", "value observed": -0.111}

## Input # get_value(readout='composite z-score', item= CCOC(=O)C1=CCC(c2cc3ccccc3[nH]2)N(CCN2CC(C(=O)OCC)=CCC2c2cc3ccccc3[nH]2)C1 (centres undefined) )
## Output -0.0216

## Input # get_value(readout='composite z-score', item= COC(=O)[C@@]1(Cc2ccccc2)[C@H]2c3cc(C(=O)N(C)C)n(CCSC(=N)N)c3C[C@H]2CN1C(=O)c1ccccc1 )
## Output 0.243

## Input # get_value(readout='composite z-score', item= O=C1[C@H]2C=C(I)[C@H](C[C@@H]2c2ccccc2)[C@@]12CO2 )
## Output -0.104

## Input # get_value(readout='composite z-score', item= O=C(NCC(O)CO)[C@@]1(CCS(=O)(=O)c2ccccc2)N=C(c2ccc(OCCCO)cc2)O[C@H]1c1ccccc1 (some centres undefined) )
## Output 0.123

## Input # get_value(readout='composite z-score', item= C=C(C)[C@@H]1CC=C(C(O)C2C=CC3C(=O)N(c4ccccc4)C(=O)C3N2Nc2ccc([N+](=O)[O-])cc2)CC1 (some centres undefined) )
## Output -0.0784

---

# method description: changes in parasitized red cell lysis, either direction – P. falciparum Indochina, OD700, 3 h, PSAC antagonist project, primary screen (AID 1156)
# condition context: P. falciparum-infected erythrocytes, osmotic lysis, higher = more signal, called active from +8 up or from −8 down
outcome measure: z-score
Respond numerically, and do not add a unit to the figure.

Solved cases (4 shown):
{"compound": "C=CCNC(=O)[C@H]1[C@@H]2C(=O)O[C@@H](c3ccccc3)[C@@H](c3ccccc3)N2[C@@H](c2ccccc2OCCO)[C@]12C(=O)N(C(=O)OCCOC)c1ccc(C#Cc3ccc(OC)cc3)cc12", "z-score": 0.0435}
{"compound": "C=CCOC(=O)[C@H]1[C@@H]2C(=O)O[C@@H](c3ccccc3)[C@@H](c3ccccc3)N2[C@@H](c2ccc(OCCOC(=O)[C@@H]3C[C@@H]4C(=O)N[C@@H](CCCCNC(C)=O)C(=O)N4[C@@H]3c3cccc(OCCO)c3)cc2)[C@]12C(=O)Nc1ccccc12", "z-score": 2.28}
{"compound": "CC1CC/C=C\\[C@H]2OC34C=CCN(Cn5nnc6ccccc65)C(=O)[C@H]3N(CCCCCCO)C(=O)[C@@H]4C2C(=O)O1 (stereo not given in full)", "z-score": -0.248}
{"compound": "CCCC=C(CCC)[C@@H](NC(=O)c1ccc(C(F)(F)F)cc1)c1ccc(C(F)(F)F)cc1", "z-score": -0.957}

## Input # get_value(readout='z-score', item= [N-]=[N+]=Nc1ccccc1C[C@@]1(C(=O)NCC(O)CO)N=C(c2ccc(OCCCO)cc2)O[C@@H]1c1ccccc1 (stereo not given in full) )
## Output 2.05

---

# method description: probe aNog binding to arrayed compounds – biochemical, biotinylated probe, 635/667 nm fluorescence, primary screen (AID 1115);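 further: probe is biotinylated aNog protein used at 0.15 µg/mL for 1 h at 4 C; z-score combines 667 nm fluorescence of each spot with its signal to noise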
# condition context: small-molecule microarray, higher = more signal
# maps each entry to its composite z-score
Respond numerically, and do not add a unit to the figure.

{"compound": "CCCN1C(=O)[C@]2(CCC(=O)OC(C)(C)C)N=C(c3ccc(OCCCO)cc3)O[C@@H]2c2ccccc21", "composite z-score": 0.175}
{"compound": "Cc1ccc(S[C@]2(C(=O)NC3CC3)CC(=O)N(C(C)C)[C@@H]2c2ccc(CO)cc2I)cc1", "composite z-score": -0.519}
{"compound": "COCCOC(=O)N1C(=O)[C@@]2(c3cc(C#CCC(C(=O)OC)C(=O)OC)ccc31)[C@H](C(=O)Nc1nc3ccccc3s1)[C@H]1C(=O)O[C@H](c3ccccc3)[C@H](c3ccccc3)N1[C@@H]2c1ccc(OCCO)cc1", "composite z-score": -0.0242}

## Input # get_value(readout='composite z-score', item= CC(C)NC(=O)[C@@]1(c2ccc([N+](=O)[O-])cc2)CC(=O)N(CC23CC4CC(CC(C4)C2)C3)[C@@H]1c1ccc(CO)cc1 )
## Output 1.85

## Input # get_value(readout='composite z-score', item= CC(C)OC(=O)CC(=O)CC(O)c1cccc([N+](=O)[O-])c1 (stereo not drawn) )
## Output -0.138

## Input # get_value(readout='composite z-score', item= O=C(NC1CC1)[C@@H]1c2ccccc2C(=O)N(CC23CC4CC(CC(C4)C2)C3)[C@H]1c1ccc(CO)cc1 )
## Output -0.541

## Input # get_value(readout='composite z-score', item= CCCCC(O)C1C=CC2C(=O)N(c3ccccc3)C(=O)C2N1Nc1ccccc1 (stereo not drawn) )
## Output 0.331

## Input # get_value(readout='composite z-score', item= C=C(COC)/C(=C/C[C@H](OC(C)=O)c1ccccc1OCCO)c1cc(C(=O)OC)ccc1OC )
## Output -0.194

---

# target or system: Dickkopf-related protein 1 (Homo sapiens) (UniProt O94907)
# Sequence (O94907 whole entry, looked up): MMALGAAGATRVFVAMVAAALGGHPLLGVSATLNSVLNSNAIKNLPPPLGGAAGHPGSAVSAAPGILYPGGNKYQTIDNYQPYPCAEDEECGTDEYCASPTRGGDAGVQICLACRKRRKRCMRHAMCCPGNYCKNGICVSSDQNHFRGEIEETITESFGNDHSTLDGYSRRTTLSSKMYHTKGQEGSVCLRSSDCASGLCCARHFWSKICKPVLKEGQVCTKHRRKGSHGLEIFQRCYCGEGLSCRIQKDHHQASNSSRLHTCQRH
# method description: small molecules binding DKK1 protein – biochemical, small-molecule microarray, 635 nm fluorescence scan, primary screen (AID 1106);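 further: score merges emission near 667 nm with signal to noise over three replicate slides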
# condition context: higher = more signal
# binning rule on composite z-score: I = under -0.1, II = from -0.1 up to 0.9, III = 0.9 and over

The following molecules have reported results that may help.
{"molecule": "CCCC=C(CCC)[C@@H](NC(=O)c1ccc(C(F)(F)F)cc1)c1ccc(C(F)(F)F)cc1", "category": "I"}
{"molecule": "CCCCC(O)C1C=CC2C(=O)N(c3ccccc3)C(=O)C2N1Nc1ccc([N+](=O)[O-])cc1 (centres undefined)", "category": "I"}
{"molecule": "C=C(CCCC)/C(=C/C[C@@H](OC(C)=O)c1ccc(CO)o1)c1cnc2ccccc2c1", "category": "II"}
{"molecule": "NC(=O)N1C(=O)C2C(C1=O)C1C=C(CCCO)C2C(c2ccc(CN3CCCC3)cc2)N1Cc1sc2ccccc2c1Cl (centres undefined)", "category": "I"}
{"molecule": "CC(C)C(CO)N1C(=O)[C@@H]2C3C(=O)OCCC/C=C\\[C@H]3OC23C=CCN(Cc2ccccc2)C(=O)[C@@H]13 (some centres undefined)", "category": "I"}
{"molecule": "CN1C(=O)[C@@H]2[C@@H](CC(COc3ccccc3)=C3[C@@H](CCc4ccccc4)OB(O)C[C@@H]32)C1=O", "category": "II"}
{"molecule": "COc1ccc([Si](C)(C)[C@@H]2[C@@H](CC(=O)N(CCO)Cc3ccccc3)O[C@]3(C(=O)N(Cc4ccc(N5C(=O)c6cccc7cccc5c67)cc4)c4ccccc43)[C@H]2C)cc1", "category": "II"}
{"molecule": "COc1ccc([Si](C)(C)[C@H]2[C@H](CC(=O)N3CCC[C@H]3CO)O[C@@]3(C(=O)N(Cc4ccc(N5CCCCC5=O)cc4)c4ccccc43)[C@@H]2C)cc1", "category": "II"}
{"molecule": "C=CCC(OC(C)=O)[C@@H]1[C@@H](N(Cc2ccc(-c3ccccc3)cc2)C(=O)c2cccc3ccccc23)c2cc(OCCCO)ccc2N1C(=O)Cc1ccc(OC)cc1 (some centres undefined)", "category": "I"}
{"molecule": "COc1ccc([Si](C)(C)[C@H]2[C@H](CC(=O)N3Cc4ccccc4C[C@H]3CO)O[C@@]3(C(=O)N(C)c4ccccc43)[C@@H]2C)cc1", "category": "III"}

## Input Kindly identify the class of C=CCOC(=O)[C@@H]1[C@H]2C(=O)O[C@H](c3ccccc3)[C@H](c3ccccc3)N2[C@H](c2ccc(OCCOC(=O)[C@H]3C[C@H]4C(=O)N[C@@H](CCCCN(C)C)C(=O)N4[C@H]3c3ccc(O)cc3)cc2)[C@@]12C(=O)Nc1ccc(I)cc12 .
## Output III

## Input Kindly identify the class of COc1ccc([Si](C)(C)[C@@H]2[C@@H](CC(=O)N3Cc4ccccc4C[C@H]3CO)O[C@]3(C(=O)N(Cc4cccc(N5CCOC5=O)c4)c4ccccc43)[C@H]2C)cc1 .
## Output III

## Input Kindly identify the class of C=CCN1C(=O)[C@]2(O[C@H](CCn3cc([C@H](O)c4ccccc4)nn3)[C@@H]([Si](C)(C)c3ccc(OC)cc3)[C@@H]2C)c2cc(NC(=O)c3ccc(OC)cc3)ccc21 .
## Output II
